Cited source: patent US6110918A

test: physchem; settings: water

COMPOUND	solubility
CS(=O)(=O)O.O.O.O.O=C1Cc2cc(CCN3CCN(c4nsc5ccccc45)CC3)c(Cl)cc2N1 [ziprasidone mesylate trihydrate]	730 µg/mL
